Target: human melatonin receptor (human ML1A) (Homo sapiens)
Construct: expressed in transfected cells; host or cells: COS-1 cells (transient, pcDNAI, DEAE-dextran); membrane homogenates
Sequence (P48039 whole entry): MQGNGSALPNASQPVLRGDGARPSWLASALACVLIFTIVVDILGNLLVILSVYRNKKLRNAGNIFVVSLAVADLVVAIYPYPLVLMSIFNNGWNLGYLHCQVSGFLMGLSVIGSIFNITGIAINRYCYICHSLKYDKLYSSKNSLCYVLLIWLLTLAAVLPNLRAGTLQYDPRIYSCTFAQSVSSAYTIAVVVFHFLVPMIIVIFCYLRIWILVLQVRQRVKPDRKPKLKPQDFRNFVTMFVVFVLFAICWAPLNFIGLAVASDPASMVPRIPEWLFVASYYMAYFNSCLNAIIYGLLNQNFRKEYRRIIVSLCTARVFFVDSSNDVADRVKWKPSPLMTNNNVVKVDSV
Assay: Melatonergic binding: displacement of 2-[125I]-iodomelatonin at the human melatonin receptor (human ML1A in COS-1 membranes)
Conditions: Table 6; displacement of 2[125I]-Iodomelatonin (100 pM), 37° C., 1 hour
PROPERTY: IC50

// query IC50 value for entry COc1cccc([C@H]2[C@H](CNC(=O)C(C)C)C2(F)F)c1 (relative stereo) [Example 134] 40 to 250 nM

What do you have for CCCC(=O)NCC[C@@H]1C[C@H]1c1cccc(OC)c1 (single isomer, unassigned) [Example 16] ? 250 to 600 nM
